The reported numbers originate from the RNAGym collection of RNA variant scans (doi:10.1002/anie.201605470).

B1: Osa-1-4 twister ribozyme (parent)
chain: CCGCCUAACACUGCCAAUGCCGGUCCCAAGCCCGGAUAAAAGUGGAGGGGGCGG

Variants of: B1
Assay: self-cleavage, relative activity (ratio to wild type); higher = more cleavage; co-transcriptional
Give self-cleavage for every item shown.
Could you keep your reply to the number by itself?

Input line: Any idea what its self-cleavage is? The variant is CCGCCUAACACUGCCAAUGCCGGUCCCAAGCCCGGAUUACAGUGGAGGGGGCGG [A38U A40C]
Output line: 0.06

Input line: Any idea what its self-cleavage is? The variant is CCGCCUAACACUGCCAAUGCCGGUCCCAACCCCGGAUAAAAGUGGAGGGGGCAG [G30C G53A]
Output line: 0.04

Input line: Any idea what its self-cleavage is? The variant is CCGCCUAACACUGCCAAGGCCGGUCCCAAGCCCGGAUAAAAGUGUAGGGGGCGG [G45U U18G]
Output line: 0.19

Input line: Any idea what its self-cleavage is? The variant is CCGCCUAACACUGCCAAUGACGGUCCCAAGCCCGGAUAAAAGUGGAGGGGGUGG [C20A C52U]
Output line: 0.82

Input line: Any idea what its self-cleavage is? The variant is CCGCCUAACACUGCCAAUGCCGGUCGCAAGCCUGGAUAAAAGUGGAGGGGGCGG [C26G C33U]
Output line: 0.07

Input line: Any idea what its self-cleavage is? The variant is CCGCCUAACACUGCCAAUGCCGGUCCCAAGCCCAAAUAAAAGUGGAGGGGGCGG [G34A G35A]
Output line: 0.77

Input line: Any idea what its self-cleavage is? The variant is CCGCCUAACACUCCCAAUGCCGGUCCCAAGCCCGGAUAAAACUGGAGGGGGCGG [G13C G42C]
Output line: 0.02

Input line: Any idea what its self-cleavage is? The variant is CCGCCUAACACUGCGAAUGCCGGUCCCAUGCCCGGAUAAAAGUGGAGGGGGCGG [A29U C15G]
Output line: 0.09

Input line: Any idea what its self-cleavage is? The variant is CCGCCUAAUACUGCCAAUGCCGGUCCCAAGCGCGGAUAAAAGUGGAGGGGGCGG [C32G C9U]
Output line: 0.04

Input line: Any idea what its self-cleavage is? The variant is CCGCCUAACACUGCCAAUGCCGGUCCCAAGCCCGGAUGAAAGUGGAGGAGGCGG [A38G G49A]
Output line: 0.13

Input line: Any idea what its self-cleavage is? The variant is CCGCCUAACACUGCCAAAGCCGGUCCCAAGCCCGGAAAAAAGUGGAGGGGGCGG [U18A U37A]
Output line: 0.63

Input line: Any idea what its self-cleavage is? The variant is CCGCCUAACACUGCCAAUGCCGGCCCCAAUCCCGGAUAAAAGUGGAGGGGGCGG [G30U U24C]
Output line: 0.02

Input line: Any idea what its self-cleavage is? The variant is CCGCCUAACACUGCCAAUGCCGGUCCCAAGCCCGGAUAAAGGUGGAGGUGGCGG [A41G G49U]
Output line: 0.07

Input line: Any idea what its self-cleavage is? The variant is CCGCCUAACACUGCCAAUCCCGGUCCCAAGCCCGGAUGAAAGUGGAGGGGGCGG [A38G G19C]
Output line: 0.06

Input line: Any idea what its self-cleavage is? The variant is CCGCCUAACACUGCCAAUGCCGGUCACAAGCCCGGAUCAAAGUGGAGGGGGCGG [A38C C26A]
Output line: 0.07

Input line: Any idea what its self-cleavage is? The variant is CCGCCUAACACUGCCAAUGCCGUUCCCAAGCCCGGAUAAAAGUGGAGGGAGCGG [G23U G50A]
Output line: 0.05

Input line: Any idea what its self-cleavage is? The variant is CCGCCUAAAACUGCCAAUGCCAGUCCCAAGCCCGGAUAAAAGUGGAGGGGGCGG [C9A G22A]
Output line: 0.34

Input line: Any idea what its self-cleavage is? The variant is CCGCCUAACACUGCAAAUGCCGGUCCCAAGCCCGGAUAAAAAUGGAGGGGGCGG [C15A G42A]
Output line: 0.12

Input line: Any idea what its self-cleavage is? The variant is CCGCCUAACACUGCCAUUGCCGGUCCCGAGCCCGGAUAAAAGUGGAGGGGGCGG [A17U A28G]
Output line: 0.37

Input line: Any idea what its self-cleavage is? The variant is CCGCCUAACACUUCCAAUGCCGGUCCCUAGCCCGGAUAAAAGUGGAGGGGGCGG [A28U G13U]
Output line: 0.03

Input line: Any idea what its self-cleavage is? The variant is CCGCCUAACACCGCCAAUGCCGGUCCCAAGCCCGGAUAAAAGUGGAGGAGGCGG [G49A U12C]
Output line: 0.05

Input line: Any idea what its self-cleavage is? The variant is CCGCCUAACACUGCCAAUGCCGGUCCCAAGCCCGGAAAAAAGUGGAGUGGGCGG [G48U U37A]
Output line: 0.05
